Listed here: items and their measured GI50.
Tested on: SK-MEL-5
assay.details: NCI tumour cell line growth inhibition, 48 h
Activity calls are given as the source filed them. Cut-off read from the data, not from the text of the source: active = GI50 up to about 1.1 µM and inactive = higher.

Measured GI50 of C[n+]1c2ccccc2c(CNC(CS)C(=O)O)c2ccccc21 (stereo unspecified) : > 10 µM (inactive)

Noted for `[N-]=[N+]=Nc1ccc2c(c1)Sc1ccccc1N2CCCCN1CCN(Cc2ccc(C(=O)c3ccccc3)cc2)CC1` : its GI50 reads 2.13 µM (inactive)

Sure, the documented GI50 for `CC1=C(C(=O)Nc2ccccc2C)C(c2ccc(C3C(C(=O)Nc4ccccc4C)=C(C)NC(C)=C3C(=O)Nc3ccccc3C)cc2)C(C(=O)Nc2ccccc2C)=C(C)N1` is 12.1 µM (inactive)

Given item `N#Cc1c(NC(=S)NC(=O)c2ccccc2)nc2c(c1-c1ccccc1)CCC2` , the value recorded as its GI50 is 73.3 µM (inactive)

Per the record, `COC(=O)c1cc(C)ccc1/C=C1\Cc2cc(C)c(C)cc2C1=O` has GI50 of > 100 µM (inactive)

Short answer for `COC(=O)[C@@H]1[C@H](O)CCC2=C(CC(=O)c3ccoc3)[C@H](C)CC[C@]21C` : GI50 was 18.1 µM (inactive)

Record `CCNC(=O)CCN(C(=O)O)S(=O)(=O)c1ccc(NC(=O)c2ccccc2)cc1` . Reported GI50: > 100 µM (inactive)

Entry `O=C1/C(=C2/CCCN2)C(c2ccc[nH]2)=NN1c1ccccc1` , GI50 reported as > 100 µM (inactive)

The measured GI50 associated with `COc1cc2c(cc1OCCCCN1C(=O)c3cccc4cccc(c34)C1=O)N=C[C@@H]1CCCN1C2=O` reads 2.01 µM (inactive)
